These entries and their values trace back to ChEMBL document CHEMBL1177647.

The entries below are paired with their reported Drug uptake.
tested on: Stomach; test: Biodistribution in ddY mouse stomach at 0.2 to 0.4 uCi, iv after 10 mins measured per gram of organ; format: ADME, organism-based; conditions: in vivo
Units required after the number.

// query I have this molecule here, `OCCOc1ccc(-c2cc3cc([125I])ccc3[nH]2)cc1` , and I need its recorded Drug uptake.
// result 1.97 %ID

// query And `COc1ccc(-c2cc3cc([125I])ccc3[nH]2)cc1` ?
// result 1.38 %ID

// query And `CN(C)c1ccc(-c2cc3cc([125I])ccc3[nH]2)cc1` ?
// result 10.65 %ID

// query And `CNc1ccc(-c2cc3cc([125I])ccc3[nH]2)cc1` ?
// result 1.34 %ID

---

The entries below are paired with their reported Drug uptake.
tested on: Blood; assay: Biodistribution in ddY mouse blood at 0.2 to 0.4 uCi, iv after 30 mins; assay type: ADME, organism-based; conditions: in vivo, 0.5 h
Reply numerically in % ID/g, unit not repeated.

Below: 3 compounds and their reported Drug uptake.
item.smiles	metric.name	value.observed
OCCOc1ccc(-c2cc3cc([125I])ccc3[nH]2)cc1	Drug uptake	1.26
CNc1ccc(-c2cc3cc([125I])ccc3[nH]2)cc1	Drug uptake	1.36
COc1ccc(-c2cc3cc([125I])ccc3[nH]2)cc1	Drug uptake	1.38

Read the next record carefully.
// query Which Drug uptake is reported with Blood for this entry: `CN(C)c1ccc(-c2cc3cc([125I])ccc3[nH]2)cc1` ?
// result 3.68

---

system: Stomach; assay: Biodistribution in ddY mouse stomach at 0.2 to 0.4 uCi, iv after 60 mins measured per gram of organ; assay type: ADME, organism-based; settings: in vivo, 1 h
metric.name: Drug uptake (%ID)
Reply numerically in %ID, unit not repeated.

Below: 2 compounds and their reported Drug uptake.
item.smiles	Drug uptake / %ID
CN(C)c1ccc(-c2cc3cc([125I])ccc3[nH]2)cc1	16.26
CNc1ccc(-c2cc3cc([125I])ccc3[nH]2)cc1	1.68

// query Which Drug uptake is reported with Stomach for this entry: `COc1ccc(-c2cc3cc([125I])ccc3[nH]2)cc1` ?
// result 3.06

// query And `OCCOc1ccc(-c2cc3cc([125I])ccc3[nH]2)cc1` ?
// result 1.62

---

test system: Pancreas; assay: Biodistribution in ddY mouse pancreas at 0.2 to 0.4 uCi, iv after 60 mins; format: ADME, organism-based; settings: in vivo, 1 h
metric.name: Drug uptake (% ID/g)
Reply numerically in % ID/g, unit not repeated.

Below: 3 compounds and their reported Drug uptake.
item.smiles	Drug uptake (% ID/g)
CN(C)c1ccc(-c2cc3cc([125I])ccc3[nH]2)cc1	2.3
CNc1ccc(-c2cc3cc([125I])ccc3[nH]2)cc1	1.27
COc1ccc(-c2cc3cc([125I])ccc3[nH]2)cc1	1.29

// query I have this compound here, `OCCOc1ccc(-c2cc3cc([125I])ccc3[nH]2)cc1` , and I need its recorded Drug uptake.
// result 2.22

---

The entries below are paired with their reported Drug uptake.
system: Kidney; assay: Biodistribution in ddY mouse kidney at 0.2 to 0.4 uCi, iv after 2 mins; format: ADME, organism-based; details: in vivo
Reply numerically in % ID/g, unit not repeated.

item.smiles	Drug uptake [% ID/g]
CN(C)c1ccc(-c2cc3cc([125I])ccc3[nH]2)cc1	9.49
CNc1ccc(-c2cc3cc([125I])ccc3[nH]2)cc1	5.53
COc1ccc(-c2cc3cc([125I])ccc3[nH]2)cc1	8.76

// query I have this compound here, `OCCOc1ccc(-c2cc3cc([125I])ccc3[nH]2)cc1` , and I need its recorded Drug uptake.
// result 11.93

---

test system: Blood; experiment: Biodistribution in ddY mouse blood at 0.2 to 0.4 uCi, iv after 2 mins; format: ADME, organism-based; conditions: in vivo
metric.name: Drug uptake (% ID/g)
Reply numerically in % ID/g, unit not repeated.

Below: 3 molecules and their reported Drug uptake.
item.smiles	value.observed
OCCOc1ccc(-c2cc3cc([125I])ccc3[nH]2)cc1	4.07
CN(C)c1ccc(-c2cc3cc([125I])ccc3[nH]2)cc1	6.18
COc1ccc(-c2cc3cc([125I])ccc3[nH]2)cc1	3.59

Read the next record carefully.
// query Which Drug uptake is reported with Blood for this entry: `CNc1ccc(-c2cc3cc([125I])ccc3[nH]2)cc1` ?
// result 3.77

---

system: Brain; assay: Biodistribution in ddY mouse brain at 0.2 to 0.4 uCi, iv after 60 mins; format: ADME, organism-based; conditions: in vivo, 1 h
The entries below are paired with their reported Drug uptake.
Reply numerically in % ID/g, unit not repeated.

Below: 3 molecules and their reported Drug uptake.
item.smiles	value.observed
CNc1ccc(-c2cc3cc([125I])ccc3[nH]2)cc1	0.83
CN(C)c1ccc(-c2cc3cc([125I])ccc3[nH]2)cc1	0.71
OCCOc1ccc(-c2cc3cc([125I])ccc3[nH]2)cc1	1.82

Read the next record carefully.
// query I have this molecule here, `COc1ccc(-c2cc3cc([125I])ccc3[nH]2)cc1` , and I need its recorded Drug uptake.
// result 1.16

---

system: Kidney; assay: Biodistribution in ddY mouse kidney at 0.2 to 0.4 uCi, iv after 10 mins; assay type: ADME, organism-based; settings: in vivo
metric.name: Drug uptake
Units required after the number.

Below: 3 compounds and their reported Drug uptake.
item.smiles	Drug uptake
CNc1ccc(-c2cc3cc([125I])ccc3[nH]2)cc1	4.31 % ID/g
CN(C)c1ccc(-c2cc3cc([125I])ccc3[nH]2)cc1	4.46 % ID/g
COc1ccc(-c2cc3cc([125I])ccc3[nH]2)cc1	4.96 % ID/g

Read the next record carefully.
// query I have this compound here, `OCCOc1ccc(-c2cc3cc([125I])ccc3[nH]2)cc1` , and I need its recorded Drug uptake.
// result 9.35 % ID/g

---

tested on: Heart; test: Biodistribution in ddY mouse heart at 0.2 to 0.4 uCi, iv after 60 mins; type: ADME, organism-based; settings: in vivo, 1 h
The entries below are paired with their reported Drug uptake.
Reply numerically in % ID/g, unit not repeated.

Below: 3 compounds and their reported Drug uptake.
item.smiles	uom	Drug uptake
CNc1ccc(-c2cc3cc([125I])ccc3[nH]2)cc1	% ID/g	1.88
CN(C)c1ccc(-c2cc3cc([125I])ccc3[nH]2)cc1	% ID/g	1.84
OCCOc1ccc(-c2cc3cc([125I])ccc3[nH]2)cc1	% ID/g	1.36

Read the next record carefully.
// query Which Drug uptake is reported with Heart for this entry: `COc1ccc(-c2cc3cc([125I])ccc3[nH]2)cc1` ?
// result 1.06

---

The entries below are paired with their reported Drug uptake.
test system: Blood; test: Biodistribution in ddY mouse blood at 0.2 to 0.4 uCi, iv after 10 mins; type: ADME, organism-based; details: in vivo
Reply numerically in % ID/g, unit not repeated.

item.smiles	uom	value.observed
CN(C)c1ccc(-c2cc3cc([125I])ccc3[nH]2)cc1	% ID/g	4.53
COc1ccc(-c2cc3cc([125I])ccc3[nH]2)cc1	% ID/g	1.97
OCCOc1ccc(-c2cc3cc([125I])ccc3[nH]2)cc1	% ID/g	1.6

Read the next record carefully.
// query Which Drug uptake is reported with Blood for this entry: `CNc1ccc(-c2cc3cc([125I])ccc3[nH]2)cc1` ?
// result 1.71

---

test system: Brain; experiment: Biodistribution in ddY mouse brain at 0.2 to 0.4 uCi, iv after 2 mins; assay type: ADME, organism-based; conditions: in vivo
metric.name: Drug uptake (% ID/g)
Reply numerically in % ID/g, unit not repeated.

Below: 3 molecules and their reported Drug uptake.
item.smiles	assay.system	metric.name	uom	value.observed
CNc1ccc(-c2cc3cc([125I])ccc3[nH]2)cc1	Brain	Drug uptake	% ID/g	1.1
COc1ccc(-c2cc3cc([125I])ccc3[nH]2)cc1	Brain	Drug uptake	% ID/g	2.11
OCCOc1ccc(-c2cc3cc([125I])ccc3[nH]2)cc1	Brain	Drug uptake	% ID/g	2.13

// query I have this molecule here, `CN(C)c1ccc(-c2cc3cc([125I])ccc3[nH]2)cc1` , and I need its recorded Drug uptake.
// result 1.19

---

The entries below are paired with their reported Drug uptake.
tested on: Spleen; assay: Biodistribution in ddY mouse spleen at 0.2 to 0.4 uCi, iv after 30 mins; format: ADME, organism-based; details: in vivo, 0.5 h
Units required after the number.

Below: 3 compounds and their reported Drug uptake.
item.smiles	Drug uptake
COc1ccc(-c2cc3cc([125I])ccc3[nH]2)cc1	2.96 % ID/g
CN(C)c1ccc(-c2cc3cc([125I])ccc3[nH]2)cc1	2.6 % ID/g
OCCOc1ccc(-c2cc3cc([125I])ccc3[nH]2)cc1	4.75 % ID/g

// query Which Drug uptake is reported with Spleen for this entry: `CNc1ccc(-c2cc3cc([125I])ccc3[nH]2)cc1` ?
// result 10.34 % ID/g
